Ref: patent EP4209511A1

study_target: T1, human CD84 on cells (human) (UniProt Q9UIB8)
T1 sequence (looked up): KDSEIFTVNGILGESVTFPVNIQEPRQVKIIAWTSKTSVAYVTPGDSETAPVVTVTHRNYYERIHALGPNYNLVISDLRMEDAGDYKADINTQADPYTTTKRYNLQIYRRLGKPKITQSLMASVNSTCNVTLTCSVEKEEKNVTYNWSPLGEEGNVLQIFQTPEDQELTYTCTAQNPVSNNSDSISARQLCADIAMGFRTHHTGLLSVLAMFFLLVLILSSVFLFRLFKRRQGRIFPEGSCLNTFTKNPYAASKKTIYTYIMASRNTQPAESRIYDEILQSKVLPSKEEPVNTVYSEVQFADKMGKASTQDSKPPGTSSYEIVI
assay_info: flow cytometry, hybridoma supernatant at equal antibody concentration, Ramos cells

[
  {
    "binder": "152-1D5 (antibody, mouse IgG1, V domains shown) VH: QVQLQQPGAEVVQPGTSVKLSCKASGYNFTNYWINWVKLRPGQGLEWIGDIYPVSGTTNYNEKFKRKATLTVDTSSSTGNMQLSSLASEDSALYYCASGTGRFAYWGQGTLVTVSA VL: DIVLTQSPASLAVSLGQRATISCRASQSVSTSSYSYMHWYQQKPGQPPKLLIKFASNLESGVPARFSGSGSGTDFTLNIHPVEEEDTATYYCQHSWEIPYTFGGGTKLEIK",
    "unit_string": "%",
    "Ramos binding": 73.4
  },
  {
    "binder": "GYCD84.1-108 (antibody, mouse IgG2a, V domains shown) VH: QVQLQQSGAELVRPGTSVKMSCKAAGYTFTNYWIGWVRQRPGHGLEWIGDIYPGGGYTNYNENFKGKATLTADTSSSTAYMQLSSLTSEDSAIYYCARSTTYYSSYWCFDVWGPGTTVTVSS VL: DIVMTQSPSSLSVSAGEKVTMSCKSSQSLLNSGNQANYLAWYQQKPGQPPKLLINGASTRESGVPDRFTGSGSGTDFTLTISSVQAEDLAVYYCQNDHSYPFTFGSGTKLEIK",
    "unit_string": "%",
    "Ramos binding": 31.2
  },
  {
    "binder": "GYCD84.3.89 (antibody, mouse IgG1, V domains shown) VH: EVKLLESGGGLVQPGGSLKLSCAASGFGFSRSWMSWVRQAPGKGLEWIGEINPDSSTINYTPSLKDKFIISRDNAKNTLFLQMSKVRSEDTALYYCATFYDGYSIYWYFDVWGAGTTVTVSS VL: DVLMTQTPLSLPVSLGDQASISCRSSQSIVHSNGDTYLEWYLQKPGQSPKLLIYKVSNRFSGVPDRFSGSGSGTDFTLKISRVEAEDLGVYYCFQGSHVPRTFGGGTKLEIK",
    "unit_string": "%",
    "Ramos binding": 91.3
  },
  {
    "binder": "GYCD84.5.171 (antibody, mouse IgG1, V domains shown) VH: EVQLVESGGGLVQPKGSLKLACAASGFTFNIYAMNWVRQAPGKGLEWVARIRSKSNNYARFYADSVKDRFTISRDDSQSMLYLQMNNLKTEDTAMYYCVRPLRSYFSMDYWGQGTSVTVSS VL: SIVMTQSPKSMSMSVGERVTLSCKASENVDTYVSWYQQKPEQSPKLLIYGASNRYTGVPDRFTGSGSATDFTLTISSVKAEDLADYHCGQTYSYPWTFGGGTKLEIK",
    "unit_string": "%",
    "Ramos binding": 35.1
  },
  {
    "binder": "GYCD84.3.298 (antibody, mouse IgG1, V domains shown) VH: QVTLKESGPGILQPSQTLSLTCSFSGFSLSTSGMGVGWIRQPSGKGLEWLAHIWWDDVKRYNPALRSRLTISKDTSSSQVFLNIASVDTADTATYYCTRIAVTYFFDFWGQGTTLTVSS VL: DIQMTQSPASLSASVGETVTITCRASENIFSSFAWYQQKRGRSPQLLVYNARTLAEGVPSRFSGSGSGTQFSLKINSLQPEDFGTYFCQHHYASPFTFGSGTELGVK",
    "unit_string": "%",
    "Ramos binding": 28.3
  }
]
